B1: Lysine-specific demethylase 2B, residues 656 to 722; numbered along this chain, Q8NHM5 (parent)
chain: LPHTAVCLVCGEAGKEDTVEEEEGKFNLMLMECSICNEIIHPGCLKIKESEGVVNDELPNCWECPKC

variants of: B1; test: abundance fitness (aPCA) (normalised: wild type 0, dead -1); higher = more abundant; growth selection in yeast, the domain comes from the species named; conditions: Homo sapiens
Here the recorded abundance fitness is given for each entry.
Lab note: jot down the number only; don't add units.

mutation: C61D
abundance fitness: -0.475
--
mutation: K25I
abundance fitness: -0.453
--
mutation: E57I
abundance fitness: -0.196
--
mutation: T18V
abundance fitness: -0.569
--
mutation: E23Q
abundance fitness: -0.21

Consider the additional variant presented here.
Consider D56F . Its measured abundance fitness is 0.023
